src = PubChem BioAssay (NCI)

Reported TGI is given for each of the following molecules.
tested on: BT-549 breast; test: NCI tumour cell line growth inhibition, 48 h

Qu. Fill in TGI for record COC(=O)C1OC(O[C@H]2CCC3(C)C(CCC4(C)C3CC=C3C5CC(C)(C)CCC5(C(=O)O)CC[C@]34C)C2(C)C)C(O)C(OC2OC(CO)C(O)C(O)C2O)C1O (some centres undefined)
Ans. 15 µM

Qu. Fill in TGI for record CCOc1ccc(S(=O)(=O)/N=C2\C=C(SCC(=O)O)C(=O)c3ccccc32)cc1
Ans. 15 µM

Qu. Fill in TGI for record COc1ccc(NC(=O)Nc2n[nH]c3ccccc23)cc1
Ans. > 100 µM

Attention now turns to another entry.
Qu. Fill in TGI for record Nc1n[nH]c2ccc([C@@H]3Nc4ccc5[nH]ncc5c4[C@H]4[C@H]5CCC(C5)[C@H]43)cc12
Ans. 9.29 µM
